Biological target: UniProt:P31391
Conditions: IC50 (nM)
Positions of bridges follow the written chain, without caps; N, C: chain ends. Non-standard residues stand in square brackets, D forms with d. Residues, ends and D or L forms follow the SMILES beside them.
A collection of molecules and their measured IC50
Give the quantity in nM, number only.

| molecule | IC50, nM |
| --- | --- |
| C[C@@H](O)[C@@H]1NC(=O)[C@H](CCCCN)NC(=O)[C@@H](Cc2c[nH]c3ccccc23)NC(=O)[C@H](Cc2ccccc2)NC(=O)[C@H](Cc2ccccc2)NC(=O)[C@@H](N)CSSC[C@@H](C(=O)O)NC(=O)[C@H](Cc2ccccc2)NC1=O (H-CFF[dW]KTFC-OH; disulfide 1-8) | 1.3 |

Continue with the molecule presented below.
Q. # input molecule: C[C@@H](O)[C@@H]1NC(=O)[C@H](CCCCN)NC(=O)[C@@H](NC(=O)c2ccc3ccccc3c2)NC(=O)[C@H](Cc2ccccc2)NC(=O)[C@H](Cc2ccccc2)NC(=O)[C@@H](N)CSSC[C@@H](C(=O)O)NC(=O)[C@H](Cc2ccccc2)NC1=O [des-AA 1,2,4,5,12,13[D-2Nal8]-SS (ODN-8)] ; wanted: its IC50
A. 165

---

Biological target: Somatostatin receptor type 4 (Homo sapiens)
Sequence (P31391 whole entry): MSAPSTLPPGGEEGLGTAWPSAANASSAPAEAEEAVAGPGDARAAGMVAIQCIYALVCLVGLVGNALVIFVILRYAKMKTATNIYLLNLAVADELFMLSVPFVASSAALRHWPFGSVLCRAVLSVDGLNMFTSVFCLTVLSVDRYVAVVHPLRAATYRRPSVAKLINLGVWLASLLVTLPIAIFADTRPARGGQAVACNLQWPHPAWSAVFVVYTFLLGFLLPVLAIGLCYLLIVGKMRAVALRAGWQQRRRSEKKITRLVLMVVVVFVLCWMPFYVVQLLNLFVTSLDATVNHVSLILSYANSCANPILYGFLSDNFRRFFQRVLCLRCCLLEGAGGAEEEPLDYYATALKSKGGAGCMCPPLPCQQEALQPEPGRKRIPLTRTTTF
Settings: IC50 (nM)
Starred links: 1 amine or outer side, 2 acyl side, 3 side chain; linkers in the order of their positions; H or OH if unused. Non-standard residues stand in square brackets, D forms with d. Residues, ends and D or L forms follow the SMILES beside them. *: point of attachment. pNA = O=[N+]([O-])c1ccc(N*)cc1; Nle = CCCC[CH](N)C(=O)O; CO = O=C([*:1])[*:2]
A collection of molecules and their measured IC50

| molecule | IC50 |
| --- | --- |
| CSCC[C@H](NC(=O)[C@H](CCCN=C(N)N)NC(=O)[C@@H](N)CC(=O)O)C(=O)N1CCC[C@H]1C(=O)N[C@H]1CSSC[C@@H](C(=O)N[C@@H](CCCCN)C(=O)O)NC(=O)[C@H](CO)NC(=O)[C@H](CO)NC(=O)[C@H](Cc2ccccc2)NC(=O)[C@H]([C@@H](C)O)NC(=O)[C@H](CCCCN)NC(=O)[C@H](Cc2c[nH]c3ccccc23)NC(=O)[C@H](Cc2ccccc2)NC(=O)[C@H](Cc2ccccc2)NC(=O)[C@H](CC(N)=O)NC(=O)[C@H](CCCN=C(N)N)NC1=O [Cortistatin] | 2.5 nM |

Q. # input molecule: CCCCC(NC(=O)NC(Cc1ccccc1)C(=O)Nc1ccc([N+](=O)[O-])cc1)C(=O)NC(CCCCN)C(=O)OC (stereo not drawn) [CAS_5311373] ({pNA-Phe-CO}-[Nle]-Lys-OMe; configuration not given here) ; wanted: its IC50
A. > 10000 nM

Q. # input molecule: `C[C@@H](O)[C@@H]1NC(=O)[C@H](CCCCN)NC(=O)[C@@H](N(C)C(=O)c2ccc3ccccc3c2)NC(=O)[C@H](Cc2ccccc2)NC(=O)[C@H](Cc2ccccc2)NC(=O)[C@H](N)CSSC[C@@H](C(=O)O)NC(=O)[C@H](Cc2ccccc2)NC1=O` ; wanted: its IC50
A. > 10000 nM
